What inhibition at 20 µM was measured for each of the following?
target: Recombinant human glyoxalase I (Homo sapiens, UniProt Q04760); construct: made in house; host or cells: E. coli; experiment: Glyoxalase I inhibition assay (96-well kinetic spectrophotometric assay, 240 nm); assay type: biochemical; conditions: 20 μM compound; Vmax relative to control without inhibitor; pH 6.6, 25° C.
Sequence (Q04760 2-184 limits assumed): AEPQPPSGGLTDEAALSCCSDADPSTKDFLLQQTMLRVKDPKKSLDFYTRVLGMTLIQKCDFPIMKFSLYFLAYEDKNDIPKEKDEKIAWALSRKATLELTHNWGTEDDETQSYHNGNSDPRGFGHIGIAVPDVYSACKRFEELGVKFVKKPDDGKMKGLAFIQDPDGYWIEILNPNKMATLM

The following compounds have reported results that may help.
{"Compound": "COc1ccc(-c2cc(-c3ccccc3)nc(SCc3ccccc3C(=O)O)c2C#N)cc1", "inhibition at 20 µM": "≥ 30%"}
{"Compound": "CC(C)C(Sc1nc(-c2ccccc2)cc(-c2ccccc2)c1C#N)C(=O)O (centres unmarked)", "inhibition at 20 µM": "≥ 30%"}
{"Compound": "COc1ccc(-c2cc(-c3cccs3)nc(SC(C(=O)O)c3ccccc3)c2C#N)cc1 (centres unmarked)", "inhibition at 20 µM": "≥ 30%"}
{"Compound": "O=C(CSc1ccccc1C(=O)O)c1ccc(-c2ccccc2)cc1", "inhibition at 20 µM": "≥ 30%"}
{"Compound": "COC(=O)c1ccccc1CSc1ccc(CN(O)C(=O)c2ccccc2)cc1", "inhibition at 20 µM": "0%"}
{"Compound": "COc1ccc(-c2cc(-c3ccccc3)nc(SC(C(=O)O)c3ccccc3)c2C#N)cc1 (centres unmarked)", "inhibition at 20 µM": "≥ 30%"}
{"Compound": "CCOC(=O)C(Sc1ccc(CN(O)C(=O)c2ccccc2)cc1)c1ccccc1 (centres unmarked)", "inhibition at 20 µM": "28.5%"}
{"Compound": "N#Cc1c(-c2cccs2)cc(-c2cccs2)nc1SC(C(=O)O)c1ccccc1 (centres unmarked)", "inhibition at 20 µM": "≥ 30%"}
{"Compound": "N#Cc1c(-c2ccccc2)cc(-c2cccs2)nc1SC(C(=O)O)c1ccccc1 (centres unmarked)", "inhibition at 20 µM": "≥ 30%"}
{"Compound": "N#Cc1c(-c2ccc(Cl)cc2)cc(-c2cccs2)nc1SC(C(=O)O)c1ccccc1 (centres unmarked)", "inhibition at 20 µM": "≥ 30%"}

Now look at this entry.
For Cc1ccc(-c2cc(-c3ccccc3)c(C#N)c(SCC(=O)Nc3ccc(C(=O)O)cc3)n2)cc1 , write its inhibition at 20 µM.
≥ 30%
